Assay target: anti-H3K9me3 antibody ab8898
Method summary: peptide microarray binding signal (635 nm), min-max normalized on array (fraction of array maximum); higher = stronger binding
Test context: peptide region: Unmod H1 variant; binder concentration: 1:10,000 dilution
Classification field: 1.0 = peptide microarray binding signal at or over 0.0009; 0.0 = peptide microarray binding signal under 0.0009.

Sample answers from the record:
# Binder, Class
rows = [
    ("KKAPKSPAKAKAV [Unmod H1 variant K K A P K S P A K A K A V]", 1.0),
    ("AKAVKPKAAKPKT [Unmod H1 variant A K A V K P K A A K P K T]", 0.0),
    ("APAPAEKTPVKKK [Unmod H1 variant A P A P A E K T P V K K K]", 1.0),
    ("KKLKKATGASKKS [Unmod H1 variant K K L K K A T G A S K K S]", 0.0),
    ("TKTKATGASKKLK [Unmod H1 variant T K T K A T G A S K K L K]", 0.0),
]

Please look at the following binder next.
Does the binder KPKTAKPKAAKPK [Unmod H1 variant K P K T A K P K A A K P K] have recorded peptide microarray binding signal that is 0.0009 or more?
1.0
